The values you see were collected from ChEMBL document CHEMBL1944538.

- PROTOCOL_TEXT: Cytotoxicity against human MDA-MB-435 cells assessed as cell viability at 3 uM after 24 hrs by MTT assay
- Assay type: cell-based
- TEST_SETTINGS: read-out: Activity
METRIC: viability at 24 h, 3 µM

>>> df
                                     smiles  value
0  COc1cccc2c1C(=O)c1c(O)c3c(c(O)c1C2=O)C[C@@](O)(C(=O)CO)C[C@@H]3O[C@H]1C[C@H](N)[C@H](O)[C@H](C)O1    20%
